targetOfAssay: recombinant soluble homotrimeric HA of A/Netherlands/219/03 (H7N7) (Influenza A virus A/Netherlands/219/03(H7N7))
method: trimeric HA microarray, transfection supernatant set 5
measurementParameters: remark: other sources report otherwise
endpoint: Trimeric HA Binding: RLU (RLU)
One number for each entry, in RLU.

Exercise: Name the recorded Trimeric HA Binding: RLU of the item TCN-546 (5089_L08) (antibody, V domains shown) VH: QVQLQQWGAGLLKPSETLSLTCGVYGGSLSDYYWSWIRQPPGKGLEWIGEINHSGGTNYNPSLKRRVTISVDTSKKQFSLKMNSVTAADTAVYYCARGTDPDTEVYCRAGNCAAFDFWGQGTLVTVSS VL: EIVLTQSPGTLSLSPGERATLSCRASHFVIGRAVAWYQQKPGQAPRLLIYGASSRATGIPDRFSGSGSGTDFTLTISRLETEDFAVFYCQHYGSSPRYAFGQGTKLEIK in your answer.
Key: 3740

Measured values drawn from patent US20150086555A1 for this set.
